Test system: 743489-274-T-PDC complex spheroid growth
Protocol summary: Anticancer human tumor 743489-274-T-PDC patient-derived renal cell carcinoma cell line growth inhibition [AhR]
Details: second compound 10 µM; first compound 0.1 µM; hits give low values
Endpoint: viability, T/C (%)

INSERT INTO measurements (compound, target_under_test, endpoint, reported_result) VALUES
  ('Nc1ccn(C2OC(CO)C(O)C2(F)F)c(=O)n1 (stereo not given) + Cc1ccccc1N=Nc1ccc(NC(=O)c2ccnn2C)c(C)c1', '743489-274-T-PDC complex spheroid growth', 'viability, T/C', 56.9),
  ('CC1COCCN1c1cc(-c2ccnn2C)c2ccnc(-c3ccn[nH]3)c2n1 (stereo not given) + CC(CO)NC(=O)c1cc(-c2ccc(Cl)cc2)nn(-c2cnn(C)c2)c1=O', '743489-274-T-PDC complex spheroid growth', 'viability, T/C', 93.2),
  ('NS(=O)(=O)OCC1CC(n2ccc3c(NC4CCc5ccccc54)ncnc32)CC1O (stereo not given) + Cc1ccccc1N=Nc1ccc(NC(=O)c2ccnn2C)c(C)c1', '743489-274-T-PDC complex spheroid growth', 'viability, T/C', 103),
  ('COc1cccc2c1C(=O)c1c(O)c3c(c(O)c1C2=O)CC(O)(C(=O)CO)CC3OC1CC(N)C(O)C(C)O1 (stereo not given) + CC(CO)NC(=O)c1cc(-c2ccc(Cl)cc2)nn(-c2cnn(C)c2)c1=O', '743489-274-T-PDC complex spheroid growth', 'viability, T/C', 103),
  ('Nc1ccn(C2OC(CO)C(O)C2(F)F)c(=O)n1 (stereo not given) + Cc1cncc(-c2nc(NCCc3c[nH]c4ccccc34)c3ncn(C(C)C)c3n2)c1', '743489-274-T-PDC complex spheroid growth', 'viability, T/C', 100);

----------
Listed here: items and their measured viability, T/C.
System: 743489-274-T-PDC complex spheroid growth
Protocol summary: Anticancer human tumor 743489-274-T-PDC cell line growth inhibition [AhR];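 note: spheroids exposed to agents for 7 days before readout; 100% = DMSO vehicle control wells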
Details: second compound 0.316 µM; first compound 0.00949 µM; hits give low values
Endpoint: viability, T/C

INSERT INTO assay_data (compound, target_under_test, reported_result) VALUES
  ('Nc1ncn(C2CC(O)C(CO)S2)c(=O)n1 (stereo not drawn) + Cc1ccccc1N=Nc1ccc(NC(=O)c2ccnn2C)c(C)c1', '743489-274-T-PDC complex spheroid growth', '80.4%'),
  ('O=C(C=Cn1cnc(-c2cc(C(F)(F)F)cc(C(F)(F)F)c2)n1)NNc1cnccn1 + Cc1cncc(-c2nc(NCCc3c[nH]c4ccccc34)c3ncn(C(C)C)c3n2)c1', '743489-274-T-PDC complex spheroid growth', '96.2%'),
  ('Nc1ncn(C2CC(O)C(CO)S2)c(=O)n1 (stereo not drawn) + Cc1cncc(-c2nc(NCCc3c[nH]c4ccccc34)c3ncn(C(C)C)c3n2)c1', '743489-274-T-PDC complex spheroid growth', '104%');

----------
Tested on: 743489-274-T-PDC complex spheroid growth
Protocol summary: Anticancer human tumor 743489-274-T-PDC cell line growth inhibition [AhR];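 note: spheroids exposed to agents for 7 days before readout; 100% = DMSO vehicle control wells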
Details: second compound 0.1 µM; first compound 0.0316 µM; hits give low values
Endpoint: viability, T/C (%)

INSERT INTO assay_data (molecule, reported_result) VALUES
  ('CC[C@@]1(O)C(=O)OCc2c1cc1n(c2=O)Cc2cc3c(CN(C)C)c(O)ccc3nc2-1 + Cc1ccccc1N=Nc1ccc(NC(=O)c2ccnn2C)c(C)c1', 89.3),
  ('Nc1ncn(C2CC(O)C(CO)O2)c(=O)n1 (stereo not drawn) + Cc1ccccc1N=Nc1ccc(NC(=O)c2ccnn2C)c(C)c1', 88.6),
  ('Cn1ncnc1C1c2n[nH]c(=O)c3cc(F)cc(c23)NC1c1ccc(F)cc1 (stereo not drawn) + Cc1ccccc1N=Nc1ccc(NC(=O)c2ccnn2C)c(C)c1', 103);

----------
Tested on: 743489-274-T-PDC complex spheroid growth
Protocol summary: Anticancer human tumor 743489-274-T-PDC cell line growth inhibition [AhR];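 note: spheroids exposed to agents for 7 days before readout; 100% = DMSO vehicle control wells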
Details: second compound 10 µM; first compound 0.1 µM; hits give low values
Listed here: items and their measured viability, T/C.
Endpoint: viability, T/C

INSERT INTO assay_data (molecule, reported_result) VALUES
  ('O=C(C=Cc1cccc(S(=O)(=O)Nc2ccccc2)c1)NO + CC(CO)NC(=O)c1cc(-c2ccc(Cl)cc2)nn(-c2cnn(C)c2)c1=O', '87.8%'),
  ('COc1cc(C2c3cc4c(cc3C(OC3OC5COC(C)OC5C(O)C3O)C3COC(=O)C23)OCO4)cc(OC)c1O (stereo not drawn) + Cc1cncc(-c2nc(NCCc3c[nH]c4ccccc34)c3ncn(C(C)C)c3n2)c1', '117%'),
  ('COc1cc(Nc2ncc3c(n2)-c2ccc(Cl)cc2C(c2c(F)cccc2OC)=NC3)ccc1C(=O)O + Cc1cncc(-c2nc(NCCc3c[nH]c4ccccc34)c3ncn(C(C)C)c3n2)c1', '126%'),
  ('CC1COCCN1c1cc(C2(S(C)(=N)=O)CC2)nc(-c2ccnc3[nH]ccc23)n1 (stereo not drawn) + CC(CO)NC(=O)c1cc(-c2ccc(Cl)cc2)nn(-c2cnn(C)c2)c1=O', '94.2%'),
  ('Nc1ccccc1NC(=O)c1ccc(CNC(=O)OCc2cccnc2)cc1 + Cc1cncc(-c2nc(NCCc3c[nH]c4ccccc34)c3ncn(C(C)C)c3n2)c1', '102%'),
  ('NS(=O)(=O)OCC1CC(n2ccc3c(NC4CCc5ccccc54)ncnc32)CC1O (stereo not drawn) + Cc1cncc(-c2nc(NCCc3c[nH]c4ccccc34)c3ncn(C(C)C)c3n2)c1', '127%'),
  ('CC[C@@]1(O)C(=O)OCc2c1cc1n(c2=O)Cc2cc3c(CN(C)C)c(O)ccc3nc2-1 + Cc1ccccc1N=Nc1ccc(NC(=O)c2ccnn2C)c(C)c1', '63.5%'),
  ('Cn1ncnc1C1c2n[nH]c(=O)c3cc(F)cc(c23)NC1c1ccc(F)cc1 (stereo not drawn) + Cc1ccccc1N=Nc1ccc(NC(=O)c2ccnn2C)c(C)c1', '103%'),
  ('Cn1ncnc1C1c2n[nH]c(=O)c3cc(F)cc(c23)NC1c1ccc(F)cc1 (stereo not drawn) + CC(CO)NC(=O)c1cc(-c2ccc(Cl)cc2)nn(-c2cnn(C)c2)c1=O', '83.1%'),
  ('CC1COCCN1c1cc(-c2ccnn2C)c2ccnc(-c3ccn[nH]3)c2n1 (stereo not drawn) + Cc1ccccc1N=Nc1ccc(NC(=O)c2ccnn2C)c(C)c1', '84.9%'),
  ('COc1cc(C2c3cc4c(cc3C(OC3OC5COC(C)OC5C(O)C3O)C3COC(=O)C23)OCO4)cc(OC)c1O (stereo not drawn) + CC(CO)NC(=O)c1cc(-c2ccc(Cl)cc2)nn(-c2cnn(C)c2)c1=O', '109%'),
  ('Nc1ncn(C2CC(O)C(CO)O2)c(=O)n1 (stereo not drawn) + Cc1cncc(-c2nc(NCCc3c[nH]c4ccccc34)c3ncn(C(C)C)c3n2)c1', '109%'),
  ('O=C(c1cc(Cc2n[nH]c(=O)c3ccccc23)ccc1F)N1CCN(C(=O)C2CC2)CC1 + CC(CO)NC(=O)c1cc(-c2ccc(Cl)cc2)nn(-c2cnn(C)c2)c1=O', '109%'),
  ('O=C(C=Cc1cccc(S(=O)(=O)Nc2ccccc2)c1)NO + Cc1ccccc1N=Nc1ccc(NC(=O)c2ccnn2C)c(C)c1', '76.9%'),
  ('COc1cccc2c1C(=O)c1c(O)c3c(c(O)c1C2=O)CC(O)(C(=O)CO)CC3OC1CC(N)C(O)C(C)O1 (stereo not drawn) + Cc1cncc(-c2nc(NCCc3c[nH]c4ccccc34)c3ncn(C(C)C)c3n2)c1', '96%'),
  ('Nc1ccccc1NC(=O)c1ccc(CNC(=O)OCc2cccnc2)cc1 + Cc1ccccc1N=Nc1ccc(NC(=O)c2ccnn2C)c(C)c1', '95.9%'),
  ('NS(=O)(=O)OCC1CC(n2ccc3c(NC4CCc5ccccc54)ncnc32)CC1O (stereo not drawn) + CC(CO)NC(=O)c1cc(-c2ccc(Cl)cc2)nn(-c2cnn(C)c2)c1=O', '96.1%'),
  ('COc1cc(C2c3cc4c(cc3C(OC3OC5COC(C)OC5C(O)C3O)C3COC(=O)C23)OCO4)cc(OC)c1O (stereo not drawn) + Cc1ccccc1N=Nc1ccc(NC(=O)c2ccnn2C)c(C)c1', '81.8%');

----------
Listed here: items and their measured viability, T/C.
Test system: 743489-274-T-PDC complex spheroid growth
Protocol summary: Anticancer human tumor 743489-274-T-PDC cell line growth inhibition [AhR];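 note: spheroids exposed to agents for 7 days before readout; 100% = DMSO vehicle control wells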
Details: second compound 10 µM; first compound 0.316 µM; hits give low values
Endpoint: viability, T/C (%)

INSERT INTO results (compound, endpoint, reported_result) VALUES
  ('CC1COCCN1c1cc(C2(S(C)(=N)=O)CC2)nc(-c2ccnc3[nH]ccc23)n1 (centres undefined) + Cc1cncc(-c2nc(NCCc3c[nH]c4ccccc34)c3ncn(C(C)C)c3n2)c1', 'viability, T/C', 92.5),
  ('Nc1ncn(C2CC(O)C(CO)O2)c(=O)n1 (centres undefined) + Cc1cncc(-c2nc(NCCc3c[nH]c4ccccc34)c3ncn(C(C)C)c3n2)c1', 'viability, T/C', 107),
  ('NS(=O)(=O)OCC1CC(n2ccc3c(NC4CCc5ccccc54)ncnc32)CC1O (centres undefined) + Cc1ccccc1N=Nc1ccc(NC(=O)c2ccnn2C)c(C)c1', 'viability, T/C', 116),
  ('Nc1ncn(C2CC(O)C(CO)O2)c(=O)n1 (centres undefined) + Cc1ccccc1N=Nc1ccc(NC(=O)c2ccnn2C)c(C)c1', 'viability, T/C', 80.1);
